System: HER2-positive SkBr-3
Run Description: In vitro cell viability (CellTiter-Glo) of anti-HER2 ADCs in SkBr-3
Format: cell-based
Assay Conditions: Homo sapiens, SK-BR-3, 120 h, Table 6; 120-hour assay
Endpoint Name: EC50 (nM)
Field: numeric (nM). Do not append units.

Task: Form: Entry = CC[C@@]1(O)C(=O)OCc2c1cc1n(c2=O)Cc2c-1nc1cc(F)c(C)c3c1c2[C@@H](NC(=O)CO)CC3 [Dxd, reference compound] | System = HER2-positive SkBr-3 | EC50 = ____
Result: 3.84

* * *

Measured EC50 of individual entries
System: MDA-MB-468 (HER2−)
Run Description: In vitro cell viability (CellTiter-Glo) of camptothecin derivatives in MDA-MB-468
Type: cell-based, human
Assay Conditions: Homo sapiens, MDA-MB-468, 120 h, Table 4B; 120-hour assay
Reply with just the number (in nM).

Some solved cases for reference:
>  <Compound>
CC[C@@]1(O)C(=O)OCc2c1cc1n(c2=O)Cc2c-1nc1cc(F)c(C)c3c1c2[C@@H](N)CC3 [Exatecan, exatecan, reference compound]

>  <Unit String>
nM

>  <Val>
1.99

$$$$
>  <Compound>
CC[C@]1(O)C(=O)OCc2c1cc1n(c2=O)Cc2c-1nc1cc(F)c(C)c3c1c2[C@H](NC(=O)C1(N)COC1)CC3

>  <Unit String>
nM

>  <Val>
7.32

$$$$
>  <Compound>
CC[C@@]1(O)C(=O)OCc2c1cc1n(c2=O)Cc2c-1nc1cc(F)c(C)c3c1c2[C@@H](NC(=O)CO)CC3 [Dxd, reference compound]

>  <Unit String>
nM

>  <Val>
3.16

$$$$

Please look at the following compound next.
Task: Tell me the measured EC50 of CC[C@]1(O)C(=O)OCc2c1cc1n(c2=O)Cc2c-1nc1cc(F)c(C)c3c1c2[C@H](NC(=O)C1(N)CCOC1)CC3 (stereo partly shown) , please.
Result: 5.01
